Source of measurements: paper PMC5225183

Tested on: ESCs and ESC-derived neurons
Assay: Dual luminescence reporter test system, all readouts in ESCs and ESC-derived neurons
Settings: ESCs and neurons, FLuc, RLuc, PI
Recorded Metric: result in the dual luminescence reporter test system

>  <Compound>
CC(C)(C)C(=O)C(Oc1ccc(Cl)cc1)n1cncn1 (centres unmarked)

>  <Assayed System>
ESCs and ESC-derived neurons

>  <Test Value>
potentially neurotoxic

$$$$
>  <Compound>
Clc1cc(Cl)c(-c2cc(Cl)c(Cl)cc2Cl)cc1Cl

>  <Assayed System>
ESCs and ESC-derived neurons

>  <Test Value>
potentially neurotoxic

$$$$
>  <Compound>
Brc1ccc(Oc2cc(Br)c(Br)cc2Br)c(Br)c1

>  <Assayed System>
ESCs and ESC-derived neurons

>  <Test Value>
potentially neurotoxic

$$$$

---

Test system: Tubulin α1 (Tα1) promoter
Settings: undifferentiated ESCs, 48 h exposure; lowest tested concentration with statistically significant decrease
Square brackets hold non-standard residues; d marks the D form. Peptide text beside a SMILES is read from it. * marks the point of attachment. Fmoc = O=C(OCC1c2ccccc2-c2ccccc21)*; Cha = N[C@@H](CC1CCCCC1)C(=O)O; AMC = Cc1cc(=O)oc2cc(N*)ccc12
Recorded Metric: LOAEL ESC Tα1 (µM)

>  <Compound>
[CH3][Hg][Cl] [Methylmercury]

>  <Inequality Symbol>
=

>  <Test Value>
0.5

$$$$
>  <Compound>
COC(=O)c1ccc2c(c1)NC(=O)/C2=C(\Nc1ccc(N(C)C(=O)CN2CCN(C)CC2)cc1)c1ccccc1 [Nintedanib]

>  <Inequality Symbol>
=

>  <Test Value>
0.5

$$$$
>  <Compound>
COc1cccc2c1C(=O)c1c(O)c3c(c(O)c1C2=O)C[C@@](O)(C(=O)CO)C[C@@H]3O[C@H]1C[C@H](N)[C@H](O)[C@H](C)O1 [Doxorubicin]

>  <Inequality Symbol>
=

>  <Test Value>
0.005

$$$$
>  <Compound>
Cc1cc(=O)oc2cc(NC(=O)[C@H](CCCCN)NC(=O)[C@H](CC3CCCCC3)NC(=O)OCC3c4ccccc4-c4ccccc43)ccc12 [Galnon] (Fmoc-[Cha]-Lys-{AMC})

>  <Inequality Symbol>
=

>  <Test Value>
20

$$$$
>  <Compound>
O=C(/C=C/c1cccc(S(=O)(=O)Nc2ccccc2)c1)NO [Belinostat]

>  <Inequality Symbol>
=

>  <Test Value>
5

$$$$
>  <Compound>
Brc1ccc(Oc2cc(Br)c(Br)cc2Br)c(Br)c1 [PBDE-99]

>  <Inequality Symbol>
=

>  <Test Value>
50

$$$$
>  <Compound>
O=C(NC[C@H]1CN(c2ccc(N3CCOCC3=O)cc2)C(=O)O1)c1ccc(Cl)s1 [Rivaroxaban]

>  <Inequality Symbol>
>

>  <Test Value>
10

$$$$
>  <Compound>
CN(C)CCCN1c2ccccc2Sc2ccc(Cl)cc21 [Chlorpromazine]

>  <Inequality Symbol>
=

>  <Test Value>
20

$$$$

---

System: Tubulin α1 (Tα1) promoter
Conditions: undifferentiated ESCs, 48 h exposure; lowest tested concentration with statistically significant decrease
Reported LOAEL ESC Tα1 values follow for various molecules

>  <Molecule>
CCC[C@H](NC(=O)[C@@H]1[C@H]2CCC[C@H]2CN1C(=O)[C@@H](NC(=O)[C@@H](NC(=O)c1cnccn1)C1CCCCC1)C(C)(C)C)C(=O)C(=O)NC1CC1

>  <Assayed System>
Tubulin α1 (Tα1) promoter

>  <Measure Unit>
µM

>  <Inequality Symbol>
=

>  <LOAEL ESC Tα1>
50

$$$$
>  <Molecule>
CC(C)NCC(O)COc1cccc2ccccc12 (stereo not shown)

>  <Assayed System>
Tubulin α1 (Tα1) promoter

>  <Measure Unit>
µM

>  <Inequality Symbol>
=

>  <LOAEL ESC Tα1>
50

$$$$
>  <Molecule>
[CH3][Sn]([CH3])([CH3])[Cl] [Trimethyltin chloride]

>  <Assayed System>
Tubulin α1 (Tα1) promoter

>  <Measure Unit>
µM

>  <Inequality Symbol>
=

>  <LOAEL ESC Tα1>
5

$$$$
>  <Molecule>
CC(C1CC1)C(O)(Cn1cncn1)c1ccc(Cl)cc1 (stereo not shown)

>  <Assayed System>
Tubulin α1 (Tα1) promoter

>  <Measure Unit>
µM

>  <Inequality Symbol>
>

>  <LOAEL ESC Tα1>
50

$$$$

---

Tested on: EF1α promoter
Conditions: undifferentiated ESCs, 48 h exposure
Recorded Metric: LOAEL ESC EF1α

>  <Molecule>
CC(C1CC1)C(O)(Cn1cncn1)c1ccc(Cl)cc1 (centres unmarked)

>  <Test Value>
>50 µM

$$$$
>  <Molecule>
CCCC(CCC)C(=O)O

>  <Test Value>
5000 µM

$$$$
>  <Molecule>
COCCCOc1cc(C[C@@H](C[C@H](N)[C@@H](O)C[C@H](C(=O)NCC(C)(C)C(N)=O)C(C)C)C(C)C)ccc1OC

>  <Test Value>
>50 µM

$$$$
>  <Molecule>
O=c1[nH]c(=O)c2[nH]c(=O)[nH]c2[nH]1

>  <Test Value>
>50 µM

$$$$
>  <Molecule>
CCC[C@H](NC(=O)[C@@H]1[C@H]2CCC[C@H]2CN1C(=O)[C@@H](NC(=O)[C@@H](NC(=O)c1cnccn1)C1CCCCC1)C(C)(C)C)C(=O)C(=O)NC1CC1

>  <Test Value>
50 µM

$$$$
>  <Molecule>
N[C@@H](CC(=O)N1CCn2c(nnc2C(F)(F)F)C1)Cc1cc(F)c(F)cc1F

>  <Test Value>
>50 µM

$$$$
>  <Molecule>
O=C(NC[C@H]1CN(c2ccc(N3CCOCC3=O)cc2)C(=O)O1)c1ccc(Cl)s1

>  <Test Value>
>10 µM

$$$$
>  <Molecule>
[CH3][Sn]([CH3])([CH3])[Cl] [Trimethyltin chloride]

>  <Test Value>
5 µM

$$$$

---

Tested on: ESC-derived neurons
Details: ESC-derived neurons, 48 h exposure, PI assay (cytotoxicity)
Recorded Metric: LOAEL Neurons DNA

>  <Smiles Structure>
N[C@@H](CC(=O)N1CCn2c(nnc2C(F)(F)F)C1)Cc1cc(F)c(F)cc1F

>  <Test Value>
>50 µM

$$$$
>  <Smiles Structure>
O=C(NC[C@H]1CN(c2ccc(N3CCOCC3=O)cc2)C(=O)O1)c1ccc(Cl)s1

>  <Test Value>
>10 µM

$$$$
>  <Smiles Structure>
COCC(=O)O

>  <Test Value>
>50 µM

$$$$
>  <Smiles Structure>
Brc1ccc(Oc2cc(Br)c(Br)cc2Br)c(Br)c1

>  <Test Value>
5 µM

$$$$
>  <Smiles Structure>
OC[C@@H](O)[C@@H](O)[C@H](O)[C@H](O)CO

>  <Test Value>
>50 µM

$$$$

---

Tested on: EF1α promoter
Details: undifferentiated ESCs, 48 h exposure
Square brackets hold non-standard residues; d marks the D form. Peptide text beside a SMILES is read from it. * marks the point of attachment. Fmoc = O=C(OCC1c2ccccc2-c2ccccc21)*; Cha = N[C@@H](CC1CCCCC1)C(=O)O; AMC = Cc1cc(=O)oc2cc(N*)ccc12
Recorded Metric: LOAEL ESC EF1α (µM)

>  <Molecule>
Brc1ccc(Oc2cc(Br)c(Br)cc2Br)c(Br)c1 [PBDE-99]

>  <Measure Unit>
µM

>  <Inequality Symbol>
>

>  <Test Value>
50

$$$$
>  <Molecule>
Nc1ccccc1NC(=O)c1ccc(CNC(=O)OCc2cccnc2)cc1 [Entinostat]

>  <Measure Unit>
µM

>  <Inequality Symbol>
=

>  <Test Value>
5

$$$$
>  <Molecule>
COc1cc2ncnc(Nc3ccc(F)c(Cl)c3)c2cc1OCCCN1CCOCC1 [Gefitinib]

>  <Measure Unit>
µM

>  <Inequality Symbol>
=

>  <Test Value>
50

$$$$
>  <Molecule>
C[C@]12CC[C@H](O)CC1=CC[C@@H]1[C@@H]2CC[C@]2(C)C(c3cccnc3)=CC[C@@H]12 [Abiraterone]

>  <Measure Unit>
µM

>  <Inequality Symbol>
>

>  <Test Value>
2

$$$$
>  <Molecule>
COc1ccc2[nH]c([S+]([O-])Cc3ncc(C)c(OC)c3C)nc2c1 (stereo not shown) [Omeprazole]

>  <Measure Unit>
µM

>  <Inequality Symbol>
>

>  <Test Value>
50

$$$$
>  <Molecule>
Cc1[nH]c2ccccc2c1CCNCc1ccc(/C=C/C(=O)NO)cc1 [Panobinostat]

>  <Measure Unit>
µM

>  <Inequality Symbol>
=

>  <Test Value>
0.05

$$$$
>  <Molecule>
Cc1cc(=O)oc2cc(NC(=O)[C@H](CCCCN)NC(=O)[C@H](CC3CCCCC3)NC(=O)OCC3c4ccccc4-c4ccccc43)ccc12 [Galnon] (Fmoc-[Cha]-Lys-{AMC})

>  <Measure Unit>
µM

>  <Inequality Symbol>
=

>  <Test Value>
20

$$$$
>  <Molecule>
[Br][Hg][Br] [Mercury bromide]

>  <Measure Unit>
µM

>  <Inequality Symbol>
=

>  <Test Value>
5

$$$$
>  <Molecule>
CN(C)CCCN1c2ccccc2Sc2ccc(Cl)cc21 [Chlorpromazine]

>  <Measure Unit>
µM

>  <Inequality Symbol>
=

>  <Test Value>
20

$$$$
>  <Molecule>
OC[C@@H](O)[C@@H](O)[C@H](O)[C@H](O)CO [D-mannitol]

>  <Measure Unit>
µM

>  <Inequality Symbol>
>

>  <Test Value>
50

$$$$
>  <Molecule>
CCCc1nn(C)c2c(=O)[nH]c(-c3cc(S(=O)(=O)N4CCN(C)CC4)ccc3OCC)nc12 [Sildenafil]

>  <Measure Unit>
µM

>  <Inequality Symbol>
>

>  <Test Value>
50

$$$$
>  <Molecule>
COc1cccc2c1C(=O)c1c(O)c3c(c(O)c1C2=O)C[C@@](O)(C(=O)CO)C[C@@H]3O[C@H]1C[C@H](N)[C@H](O)[C@H](C)O1 [Doxorubicin]

>  <Measure Unit>
µM

>  <Inequality Symbol>
=

>  <Test Value>
0.005

$$$$
>  <Molecule>
C/C(O)=C(\C#N)C(=O)Nc1ccc(C(F)(F)F)cc1 [Teriflunomide]

>  <Measure Unit>
µM

>  <Inequality Symbol>
>

>  <Test Value>
50

$$$$
>  <Molecule>
O=C(/C=C/c1cccc(S(=O)(=O)Nc2ccccc2)c1)NO [Belinostat]

>  <Measure Unit>
µM

>  <Inequality Symbol>
=

>  <Test Value>
5

$$$$
>  <Molecule>
Cc1ccc(NC(=O)c2ccc(CN3CCN(C)CC3)cc2)cc1Nc1nccc(-c2cccnc2)n1 [Imatinib]

>  <Measure Unit>
µM

>  <Inequality Symbol>
>

>  <Test Value>
10

$$$$
>  <Molecule>
COCC(=O)O [Methoxyacetic acid]

>  <Measure Unit>
µM

>  <Inequality Symbol>
>

>  <Test Value>
50

$$$$
